System: SNB-75 CNS
ASSAY TEXT: NCI tumour cell line growth inhibition, 48 h
Each entry below carries its reported TGI.

Sample answers from the record:
COMPOUND: COc1cc2c(cc1OC)C(N)CC2=O (stereo not drawn)
TGI: > 100 µM

COMPOUND: O=C(c1ccc(Br)cc1)n1c2ccc(Br)cc2c2nc3ccccc3nc21
TGI: > 100 µM

COMPOUND: c1ccc(COCC2OC3c4ccccc4COC3C2OCc2ccccc2)cc1 (stereo not drawn)
TGI: > 100 µM

The reported value for Cc1ccc(O)c(C(=O)CCCC(=O)c2cc(C)ccc2O)c1 in terms of TGI is > 100 µM

The reported value for CCOC(=O)/C=C1\c2ccccc2C(=O)N1CC(=O)OCC in terms of TGI is > 100 µM

The reported value for CC(=O)[O][Hg][c]1ccccc1 in terms of TGI is 2.2 µM

The reported value for Cn1c2c(c3ccccc31)CCN(CCCCN1CCN(c3cccc(Cl)c3)CC1)C2=O in terms of TGI is 9.61 µM

The reported value for CCc1nc(N)nc(N)c1-c1ccc(NCCc2ccccc2)c([N+](=O)[O-])c1 in terms of TGI is 47.3 µM

The reported value for COCCOCC(=O)N(CCn1ccc(NC(c2ccccc2)(c2ccccc2)c2ccccc2)nc1=O)CCn1cnc2nc(N)[nH]c(=O)c21 in terms of TGI is > 100 µM

The reported value for CCS(=O)(=O)CCn1cnc2c1c(=O)n(C)c(=O)n2C in terms of TGI is > 100 µM

====

Tested on: SW-620 colon
ASSAY TEXT: NCI tumour cell line growth inhibition, 48 h
MEASURED ATTRIBUTE: GI50

Sample answers from the record:
COMPOUND: O=C(O)C1(Cc2cccc(Nc3nccs3)n2)CCC(Oc2cccc(Cl)c2F)CC1 (configuration not stated)
GI50: 4.31 µM
//
COMPOUND: Nc1nnc(Cn2c(-c3ccccc3)nc3ccc(Br)cc3c2=O)s1
GI50: 36.1 µM
//
COMPOUND: COc1ccc(-c2cc(-c3cc(OC)c(OC)c(OC)c3)c(C#N)c(N3CCOCC3)n2)cc1O
GI50: 3.87 µM
//
COMPOUND: CCOC(=O)c1cc2c(n1Cc1ccccc1)-c1oncc1CC2
GI50: 3.48 µM
//
COMPOUND: O=C([O-])c1ccc(C(=O)[O-])cc1.O=C([O-])c1ccc(C(=O)[O-])cc1.[Mo+2].[Mo+2]
GI50: > 100 µM

Lab note: compound CCCCC#CC#Cc1cccc(=O)o1 tested on SW-620 colon; recorded GI50 was 18.7 µM

Lab note: compound O=C(c1ccccc1)c1nc2ccc(C(F)(F)F)cc2[n+]([O-])c1C(F)(F)F tested on SW-620 colon; recorded GI50 was 47.5 µM

Lab note: compound Nc1c(C(=O)Nc2ccccc2F)sc2nc3c(cc12)C(=O)CCC3 tested on SW-620 colon; recorded GI50 was 0.721 µM

Lab note: compound Cc1nc2n(c(=O)c1CCN1CCC(c3noc4cc(F)ccc34)CC1)CCCC2 tested on SW-620 colon; recorded GI50 was > 50 µM

Lab note: compound O=[N+]([O-])c1ccc2ncccc2c1Cl tested on SW-620 colon; recorded GI50 was 0.627 µM

Lab note: compound O=C1CCc2c(sc3[nH]c(=S)n(Cc4ccccc4)c(=O)c23)C1 tested on SW-620 colon; recorded GI50 was 4.2 µM

Lab note: compound COC1=Nc2ccccc2S(=O)(=O)C=C1 tested on SW-620 colon; recorded GI50 was 0.875 µM

Lab note: compound C[C@H]1C(Oc2ccc(O)cc2)OC2OC3(C)CCC4[C@H](C)CCC1C24OO3 (some centres not stated) tested on SW-620 colon; recorded GI50 was 8.74 µM

Lab note: compound COc1ccc(-c2ccc(/C=N/n3c(C)nn(CN4CCN(C)CC4)c3=S)o2)c([N+](=O)[O-])c1 tested on SW-620 colon; recorded GI50 was > 100 µM

====

Test system: MDA-N
ASSAY TEXT: NCI tumour cell line growth inhibition, 48 h
MEASURED ATTRIBUTE: TGI (µM)
// note: answer is a bare numeric in µM

Sample answers from the record:
MOLECULE: O=C(/C=C/c1ccc(O)c(O)c1O)OCCc1ccccc1
MEASURED ATTRIBUTE: TGI
DISPLAY UNIT: µM
EXPERIMENTAL VALUE: 34
//
MOLECULE: O=C(NC(Nc1ccc(F)c(Cl)c1)(C(F)(F)F)C(F)(F)F)OCc1ccccc1
MEASURED ATTRIBUTE: TGI
DISPLAY UNIT: µM
EXPERIMENTAL VALUE: 56.2
//
MOLECULE: CCc1nc(Cl)nc(Cl)c1Cl
MEASURED ATTRIBUTE: TGI
DISPLAY UNIT: µM
EXPERIMENTAL VALUE: 15.2

The reported value for CC1OC(OC2C(O)COC(OC3C(C)OC(OC4C(OC(=O)[C@]56CCC(C)(C)C[C@@H]5C5=CCC7[C@@]8(C)C[C@H](O)[C@H](OC9OC(CO)C(O)C(OC%10OC(CO)C(O)C(O)C%10O)C9O)[C@@](C)(CO)[C@@H]8CC[C@@]7(C)[C@]5(C)CC6)OCC(O)C4O)C(O)C3O)C2O)C(O)C(O)C1O (some centres not stated) in terms of TGI is 32

====

System: SF-295 CNS
ASSAY TEXT: NCI tumour cell line growth inhibition, 48 h
MEASURED ATTRIBUTE: log10(TGI) (log10 of the value in µM)
log10 TGI, µM

Sample answers from the record:
COMPOUND: O=C(O)C1(Cc2cccc(Nc3nccs3)n2)CCC(Oc2cccc(Cl)c2F)CC1 (stereo not given)
log10(TGI): 1.45
--
COMPOUND: CCN1C(=O)N(c2ccccc2)C2NN=c3s/c(=C4\C(=O)N(C(C)C)c5ccccc54)c(=O)n3C21 (stereo not given)
log10(TGI): 0.68
--
COMPOUND: O=C(NC(Nc1ccc(F)c(Cl)c1)(C(F)(F)F)C(F)(F)F)OCc1ccccc1
log10(TGI): 1.96
--
COMPOUND: CCCCCCCCCCCCOC1C(CNC(=O)C2OC3OC(C)(C)OC3C2NC(=O)CN2CCCCCC2)OC2OC(C)(C)OC21 (stereo not given)
log10(TGI): 1.31
--
COMPOUND: O=C1CC(=O)N(CCc2ccccc2)S(=O)(=O)N1CCc1ccccc1
log10(TGI): 1.55

The reported value for CC(=O)[O][Hg][c]1ccccc1 in terms of log10(TGI) is 0.55

The reported value for CCc1nc(N)nc(N)c1-c1ccc(NCCc2ccccc2)c([N+](=O)[O-])c1 in terms of log10(TGI) is 1.52

The reported value for CCC(C(=O)[O-])C(=O)[O-].CCC(C(=O)[O-])C(=O)[O-].N.N.NCCCCCCN.[Pt+4].[Pt+4] in terms of log10(TGI) is 1.70

The reported value for COc1cc([C@@H]2c3cc4c(cc3[C@@H](NC(=O)c3cccc(F)c3)C3COC(=O)[C@@H]32)OCO4)cc(OC)c1O (stereo not given in full) in terms of log10(TGI) is 1.43

====

System: HCT-15 colon
ASSAY TEXT: NCI tumour cell line growth inhibition, 48 h
MEASURED ATTRIBUTE: TGI

COMPOUND: Cc1ccc(S(=O)(=O)Cc2nc(-c3ccc(C(=O)NCc4cccnc4)cc3)oc2C)cc1
TGI: > 100 µM

The reported value for C=CCOC(=O)[C@@H]1C[C@@H](OC(C)(C)C)CN1C(=O)[C@@H]1[C@H]2OC(C)(C)O[C@H]2CN1C(=O)OCC1c2ccccc2-c2ccccc21 in terms of TGI is 39.4 µM

The reported value for COC(=O)C(Cc1nc2ccc(Cl)cc2[nH]c1=O)/C(=N/NC(N)=O)C(=O)Nc1ccc(Cl)cc1 (stereo not given) in terms of TGI is > 100 µM

The reported value for CSc1nc2[nH]c(=O)c(C)nc2c(=O)[nH]1 in terms of TGI is > 100 µM

The reported value for CCc1nc(Cl)nc(Cl)c1Cl in terms of TGI is 1.88 µM

====

Test system: CCRF-CEM leukemia
ASSAY TEXT: NCI tumour cell line growth inhibition, 48 h
MEASURED ATTRIBUTE: TGI (µM)
// note: answer is a bare numeric in µM

COMPOUND: COC(=O)C1=CC(NC(=O)OCc2ccccc2)C(C(=O)c2ccccc2)C[C@@H]1Sc1ccccc1 (some centres undefined)
DISPLAY UNIT: µM
TGI: 4.99

The reported value for CCCCCCCN1C(=O)C(O)(c2ccc(C3(O)C(=O)N(CCCCCCC)c4ccccc43)s2)c2ccccc21 (centres undefined) in terms of TGI is 27

The reported value for O=[N+]([O-])c1ccc2ncccc2c1Cl in terms of TGI is 29.8

The reported value for O=C(O)CCCOc1cc(-c2ccccc2F)nc2cc3c(cc12)OCO3 in terms of TGI is 9.86

The reported value for COc1ccc(-c2ccc(/C=N/n3c(C)nn(CN4CCN(C)CC4)c3=S)o2)c([N+](=O)[O-])c1 in terms of TGI is 61.4

The reported value for COc1cnc2c(c1)C(=O)c1c-2n(CCCN2CCCC2)c(=O)c2cc(F)ccc12 in terms of TGI is 2.82

The reported value for CC(=O)OC1CC[C@]2(C)C3CC[C@@]4(C)C(CCC4[C@H](C)CCCC(C)C)[C@@H]3CCC2(Br)C1 (some centres undefined) in terms of TGI is 27.3

The reported value for C/C=C/C(=O)N1C(=O)OC[C@@H]1c1ccccc1 in terms of TGI is 44.8
